# STUDY_TARGET: Potassium voltage-gated channel subfamily E member 1 (Homo sapiens) + Potassium voltage-gated channel subfamily KQT member 1 (Homo sapiens) (UniProt P15382+P51787)
# MEASUREMENT_NOTES: KCNQ1/KCNE1 complex potentiators, confirmation, selectivity assay for KCNQ1 potentiator project, thallium flux, CHO-K1 KCNQ1/E1 cells (AID 493186)
# ASSAY_CONTEXT: FluxOR thallium flux, at 10 µM
The source made the active and inactive calls.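 How the source made its calls: active means mean duplicate activation above the buffer control mean plus 5 SD of those controls; inactive means the rest.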

{"MOLECULE": "CN1CCN(C(c2ccc(Cl)cc2)c2cc(Cl)c3cccnc3c2O)CC1 (stereo not drawn)", "activation": "inactive"}
{"MOLECULE": "O=C(NC(=S)NCCc1ccccc1)c1ccco1", "activation": "inactive"}
{"MOLECULE": "O=C(Nc1nc2c(Br)cc(Br)cc2c(=O)s1)c1ccco1", "activation": "inactive"}
{"MOLECULE": "COc1ccc(C2CC(c3c(-c4ccccc4)c4cc(Cl)ccc4[nH]c3=O)=NN2S(C)(=O)=O)cc1OC (stereo not drawn)", "activation": "inactive"}
{"MOLECULE": "COc1ccc(-c2csc(NC(=S)NC(=O)c3ccco3)n2)cc1Br", "activation": "inactive"}
{"MOLECULE": "CCOC(=O)N1CCN(C(=S)NC(=O)c2ccc(F)c(F)c2)CC1", "activation": "inactive"}
{"MOLECULE": "Nc1nc(CCl)nc(Nc2ccc3ccccc3c2)n1", "activation": "inactive"}
{"MOLECULE": "Cn1cc(C(=O)N/N=C/c2ccc([N+](=O)[O-])cc2)c2ccccc21", "activation": "inactive"}

Where these numbers come from: PubChem BioAssay
